Assay: Pharmacokinetics in ADHD model rats after gavage of JYPs
Format: in vivo, SHR rats (ADHD model)
Test Context: male, SHR, rat, plasma, 4.32 g/kg/day; ADHD model rats, oral JYPs high dose 4.320 g/kg/d (3rd of 3 values)
Parameter Measured: Cmax (ng/mL)

(1) C[C@H]1O[C@@H](O[C@H]2CC[C@@]3(C)[C@@H](CC[C@]4(C)[C@@H]3C=C[C@]35OC[C@@]6(CCC(C)(C)C[C@H]63)[C@H](O)C[C@]54C)[C@]2(C)CO)[C@H](O)[C@@H](O[C@@H]2O[C@H](CO)[C@@H](O)[C@H](O)[C@H]2O)[C@H]1O
(2) CCC/C=C1\OC(=O)C2=C1CCC=C2 [Z-Ligustilide]
(3) C[C@H]1O[C@@H](O[C@H]2CC[C@@]3(C)[C@@H](CC[C@]4(C)[C@@H]3C=C[C@]35OC[C@@]6(CCC(C)(C)C[C@H]63)[C@@H](O)C[C@]54C)[C@]2(C)CO)[C@H](O)[C@@H](O[C@@H]2O[C@H](CO)[C@@H](O)[C@H](O)[C@H]2O)[C@H]1O
Lab note: arrange the 3 compounds above from lowest to highest Cmax. Returns: the labels listed in the requested order.
2, 1, 3

----------
Assay: Pharmacokinetics in control rats after gavage of JYPs
Format: in vivo, Sprague Dawley (SD) rats
Test Context: male, Sprague-Dawley, rat, plasma, po, 1.08 g/kg/day, oral JYPs low dose 1.080 g/kg/d (1st of 3 values), read-out: Tmax
Description: According to the established method for the analysis of serum biological samples, the pharmacokinetics of various components of rat serum were investigated after the administration of different dosages of JYPs to control rats. For the control experiment, healthy male Sprague Dawley (SD) rats of SPF grade ([…] ± 20 g) were purchased from Sipeifu (Beijing) Biotechnology Co., Ltd. (Beijing, China), Animal Quality Certificate No. 110324220102348616. […]
Parameter Measured: Tmax (min)

CCC/C=C1\OC(=O)C2=C1CCC=C2 [Z-Ligustilide] :: 100

(1) CCCC=C1OC(=O)C2=C1CCC1C3C=C4C(=O)OC(=CCCC)C4(CC3)C21 (stereo not shown) [Levistilide A]
(2) C[C@H]1O[C@@H](O[C@H]2CC[C@@]3(C)[C@@H](CC[C@]4(C)[C@@H]3C=C[C@]35OC[C@@]6(CCC(C)(C)C[C@H]63)[C@H](O)C[C@]54C)[C@]2(C)CO)[C@H](O)[C@@H](O[C@@H]2O[C@H](CO)[C@@H](O)[C@H](O)[C@H]2O)[C@H]1O
Between 1 and 2 , which one shows the smaller Tmax number? Kindly state the label of the option you pick.
2
(2: 25.8 min, 1: 70.2 min)

----------
Assay: Pharmacokinetics in ADHD model rats after gavage of JYPs
Assay type: in vivo, SHR rats (ADHD model)
Test Context: male, SHR, rat, plasma, 1.08 g/kg/day; ADHD model rats, oral JYPs low dose 1.080 g/kg/d (1st of 3 values)
Parameter Measured: AUC(0-inf) (ng·h/mL)

C[C@H]1O[C@@H](O[C@H]2CC[C@@]3(C)[C@@H](CC[C@]4(C)[C@@H]3C=C[C@]35OC[C@@]6(CCC(C)(C)C[C@H]63)[C@@H](O)C[C@]54C)[C@]2(C)CO)[C@H](O)[C@@H](O[C@@H]2O[C@H](CO)[C@@H](O)[C@H](O)[C@H]2O)[C@H]1O :: 233

(1) C[C@H]1O[C@@H](O[C@H]2CC[C@@]3(C)[C@@H](CC[C@]4(C)[C@@H]3C=C[C@]35OC[C@@]6(CCC(C)(C)C[C@H]63)[C@H](O)C[C@]54C)[C@]2(C)CO)[C@H](O)[C@@H](O[C@@H]2O[C@H](CO)[C@@H](O)[C@H](O)[C@H]2O)[C@H]1O
(2) CCC/C=C1\OC(=O)C2=C1CCC=C2 [Z-Ligustilide]
Endpoint returns whichever of 1 and 2 has the numerically higher AUC(0-inf). When you have decided, please share the label of that item.
1
(1: 132 ng·h/mL, 2: 49.3 ng·h/mL)

----------
Assay: Pharmacokinetics in ADHD model rats after gavage of JYPs
Type: in vivo, SHR rats (ADHD model)
Test Context: male, SHR, rat, plasma, 4.32 g/kg/day; ADHD model rats, oral JYPs high dose 4.320 g/kg/d (3rd of 3 values); read-out: MRT(0-∞)
Parameter Measured: MRT inf (h)

C[C@H]1O[C@@H](O[C@H]2CC[C@@]3(C)[C@@H](CC[C@]4(C)[C@@H]3C=C[C@]35OC[C@@]6(CCC(C)(C)C[C@H]63)[C@H](O)C[C@]54C)[C@]2(C)CO)[C@H](O)[C@@H](O[C@@H]2O[C@H](CO)[C@@H](O)[C@H](O)[C@H]2O)[C@H]1O :: 15.2
CCC/C=C1\OC(=O)C2=C1CCC=C2 [Z-Ligustilide] :: 18
C[C@H]1O[C@@H](O[C@H]2CC[C@@]3(C)[C@@H](CC[C@]4(C)[C@@H]3C=C[C@]35OC[C@@]6(CCC(C)(C)C[C@H]63)[C@@H](O)C[C@]54C)[C@]2(C)CO)[C@H](O)[C@@H](O[C@@H]2O[C@H](CO)[C@@H](O)[C@H](O)[C@H]2O)[C@H]1O :: 14.5

----------
Assay: Pharmacokinetics in control rats after gavage of JYPs
Type: in vivo, Sprague Dawley (SD) rats
Test Context: male, Sprague-Dawley, rat, plasma, 1.08 g/kg/day, oral JYPs low dose 1.080 g/kg/d (1st of 3 values)
Parameter Measured: AUC(0-inf) (ng·h/mL)

(1) CCCC=C1OC(=O)C2=C1CCC1C3C=C4C(=O)OC(=CCCC)C4(CC3)C21 (stereo not shown) [Levistilide A]
(2) CCC/C=C1\OC(=O)C2=C1CCC=C2 [Z-Ligustilide]
Given the listed items, does 1 or 2 have the lesser reported AUC(0-inf)? Refer to your chosen item by its label in the answer.
1

----------
# MRT last annotations
Assay: Pharmacokinetics in ADHD model rats after gavage of JYPs
Assay type: in vivo, SHR rats (ADHD model)
Test Context: male, SHR, rat, plasma, 1.08 g/kg/day; ADHD model rats, oral JYPs low dose 1.080 g/kg/d (1st of 3 values); read-out: MRT(0-t)
Give just the number in h; leave the unit off.

CCC/C=C1\OC(=O)C2=C1CCC=C2 [Z-Ligustilide] :: 8.9

If you can, please state the reported MRT last value of C[C@H]1O[C@@H](O[C@H]2CC[C@@]3(C)[C@@H](CC[C@]4(C)[C@@H]3C=C[C@]35OC[C@@]6(CCC(C)(C)C[C@H]63)[C@@H](O)C[C@]54C)[C@]2(C)CO)[C@H](O)[C@@H](O[C@@H]2O[C@H](CO)[C@@H](O)[C@H](O)[C@H]2O)[C@H]1O [Saikosaponin A] .
8.75

Do the same for C[C@H]1O[C@@H](O[C@H]2CC[C@@]3(C)[C@@H](CC[C@]4(C)[C@@H]3C=C[C@]35OC[C@@]6(CCC(C)(C)C[C@H]63)[C@H](O)C[C@]54C)[C@]2(C)CO)[C@H](O)[C@@H](O[C@@H]2O[C@H](CO)[C@@H](O)[C@H](O)[C@H]2O)[C@H]1O [Saikosaponin D] please
8.43

----------
Assay: Pharmacokinetics in control rats after gavage of JYPs
Format: in vivo, Sprague Dawley (SD) rats
Test Context: male, Sprague-Dawley, rat, plasma, 2.16 g/kg/day, oral JYPs medium dose 2.160 g/kg/d (2nd of 3 values), read-out: t1/2 (converted)
Parameter Measured: half-life (min)

C[C@H]1O[C@@H](O[C@H]2CC[C@@]3(C)[C@@H](CC[C@]4(C)[C@@H]3C=C[C@]35OC[C@@]6(CCC(C)(C)C[C@H]63)[C@H](O)C[C@]54C)[C@]2(C)CO)[C@H](O)[C@@H](O[C@@H]2O[C@H](CO)[C@@H](O)[C@H](O)[C@H]2O)[C@H]1O :: 652
C[C@H]1O[C@@H](O[C@H]2CC[C@@]3(C)[C@@H](CC[C@]4(C)[C@@H]3C=C[C@]35OC[C@@]6(CCC(C)(C)C[C@H]63)[C@@H](O)C[C@]54C)[C@]2(C)CO)[C@H](O)[C@@H](O[C@@H]2O[C@H](CO)[C@@H](O)[C@H](O)[C@H]2O)[C@H]1O :: 649

(P) CCC/C=C1\OC(=O)C2=C1CCC=C2 [Z-Ligustilide]
(Q) CCCC=C1OC(=O)C2=C1CCC1C3C=C4C(=O)OC(=CCCC)C4(CC3)C21 (stereo not shown) [Levistilide A]
Return label of the item with the larger half-life. Candidates: P , Q . Use the label to indicate which entry you chose.
P

----------
The following molecules are listed with their measured Tmax values.
Assay: Pharmacokinetics in control rats after gavage of JYPs
Type: in vivo, Sprague Dawley (SD) rats
Test Context: male, Sprague Dawley, rat, plasma, po, oral JYPs, read-out: peak time (Tmax)

Below, each entry is followed by its recorded Tmax result.
C=C(C)[C@@H]1CC=C2C(=CC[C@]3(C)[C@@H]([C@@H](CCC=C(C)C)C(=O)O)[C@H](O)C[C@@]23C)[C@@]1(C)CCC(=O)O :: < 4 h
C[C@@]12C[C@@]3(O)O[C@@H](O1)[C@]1(COC(=O)c4ccccc4)[C@H]3C[C@@]12O[C@@H]1O[C@H](CO)[C@@H](O)[C@H](O)[C@H]1O :: < 1 h
C[C@H]1O[C@@H](O[C@H]2CC[C@@]3(C)[C@@H](CC[C@]4(C)[C@@H]3C=C[C@]35OC[C@@]6(CCC(C)(C)C[C@H]63)[C@H](O)C[C@]54C)[C@]2(C)CO)[C@H](O)[C@@H](O[C@@H]2O[C@H](CO)[C@@H](O)[C@H](O)[C@H]2O)[C@H]1O :: < 1 h
CCCC=C1OC(=O)C2=C1CCC1C3C=C4C(=O)OC(=CCCC)C4(CC3)C21 (stereo not shown) [Levistilide A] :: < 2 h
CCC/C=C1\OC(=O)C2=C1CCC=C2 [Z-Ligustilide] :: < 2 h
COc1cc(/C=C/C(=O)O)ccc1O :: < 1 h
O=C1C[C@@H](c2ccc(O)cc2)Oc2cc(O)ccc21 :: < 1 h
O=C1C[C@@H](c2ccc(O[C@@H]3O[C@H](CO)[C@@H](O)[C@H](O)[C@H]3O)cc2)Oc2cc(O)ccc21 :: < 1 h
C=C(CC[C@@H](C(=O)O)[C@H]1[C@H](O)C[C@@]2(C)C3=CC[C@@H](C(=C)C)[C@](C)(CCC(=O)O)C3=CC[C@]12C)C(C)C :: < 4 h

Field: next molecule
Data request, read-out Tmax, for C[C@H]1O[C@@H](O[C@H]2CC[C@@]3(C)[C@@H](CC[C@]4(C)[C@@H]3C=C[C@]35OC[C@@]6(CCC(C)(C)C[C@H]63)[C@@H](O)C[C@]54C)[C@]2(C)CO)[C@H](O)[C@@H](O[C@@H]2O[C@H](CO)[C@@H](O)[C@H](O)[C@H]2O)[C@H]1O
< 1 h

All figures here come from paper PMC10976160.
